# test name: Tissue distribution after i.g. or i.v. linezolid in control, CCl4-induced and 5/6 Nx rats
# Type: in vivo, rat
# settings: rat, kidney, iv, 25 mg/kg, i.v. 25 mg/kg linezolid; 0.5 h; 5/6 Nx rats; read-out: Tissue/plasma concentration ratio, Kidney
property measured: Kp at 0.5 h

• CC(=O)NC[C@H]1CN(c2ccc(N3CCOCC3)c(F)c2)C(=O)O1 = 0.97

* * *

# test name: Tissue distribution after i.g. or i.v. linezolid in control, CCl4-induced and 5/6 Nx rats
# Type: in vivo, rat
# settings: rat, brain, oral, 63 mg/kg, i.g. 63 mg/kg linezolid; 4 h; 5/6 Nx rats; read-out: Tissue/plasma concentration ratio, Brain
property measured: Kp at 4 h

* CC(=O)NC[C@H]1CN(c2ccc(N3CCOCC3)c(F)c2)C(=O)O1 | 0.18

* * *

# test name: Tissue distribution after i.g. or i.v. linezolid in control, CCl4-induced and 5/6 Nx rats
# Type: in vivo, rat
# settings: rat, brain, oral, 63 mg/kg, i.g. 63 mg/kg linezolid; 1 h; control rats; read-out: Tissue/plasma concentration ratio, Brain
# Experimental: These two groups were further divided into the following three subgroups (n = 4): control rats, CCl4-induced rats, and 5/6 Nx rats. […] The rats were euthanized immediately after blood sampling. The brain, heart, lungs, liver, kidneys, and small intestine were collected. […] Then, 5 µL of the supernatant was analyzed.
property measured: Kp at 1 h

- CC(=O)NC[C@H]1CN(c2ccc(N3CCOCC3)c(F)c2)C(=O)O1 [Linezolid]: 0.03

* * *

# test name: Tissue distribution after i.g. or i.v. linezolid in control, CCl4-induced and 5/6 Nx rats
# Format: in vivo, rat
# settings: rat, kidney, oral, 63 mg/kg, i.g. 63 mg/kg linezolid; 0.5 h; CCl4-induced rats; read-out: Tissue/plasma concentration ratio, Kidney
property measured: Kp at 0.5 h

* CC(=O)NC[C@H]1CN(c2ccc(N3CCOCC3)c(F)c2)C(=O)O1 | 0.85

* * *

# test name: Tissue distribution after i.g. or i.v. linezolid in control, CCl4-induced and 5/6 Nx rats
# Format: in vivo, rat
# settings: rat, small intestine, iv, 25 mg/kg, i.v. 25 mg/kg linezolid; 0.5 h; 5/6 Nx rats; read-out: Tissue/plasma concentration ratio, Small intestine
property measured: Kp at 0.5 h

- CC(=O)NC[C@H]1CN(c2ccc(N3CCOCC3)c(F)c2)C(=O)O1: 1.19

* * *

# test name: Tissue distribution after i.g. or i.v. linezolid in control, CCl4-induced and 5/6 Nx rats
# Assay type: in vivo, rat
# settings: rat, liver, oral, 63 mg/kg, i.g. 63 mg/kg linezolid; 0.5 h; CCl4-induced rats; read-out: Tissue/plasma concentration ratio, Liver
property measured: Kp at 0.5 h

• CC(=O)NC[C@H]1CN(c2ccc(N3CCOCC3)c(F)c2)C(=O)O1 = 1.06

* * *

# test name: Tissue distribution after i.g. or i.v. linezolid in control, CCl4-induced and 5/6 Nx rats
# Assay type: in vivo, rat
# settings: rat, brain, iv, 25 mg/kg, i.v. 25 mg/kg linezolid; 1 h; 5/6 Nx rats; read-out: Tissue/plasma concentration ratio, Brain
property measured: Kp at 1 h

- CC(=O)NC[C@H]1CN(c2ccc(N3CCOCC3)c(F)c2)C(=O)O1: 0.15

* * *

# test name: Tissue distribution after i.g. or i.v. linezolid in control, CCl4-induced and 5/6 Nx rats
# Assay type: in vivo, rat
# settings: rat, kidney, iv, 25 mg/kg, i.v. 25 mg/kg linezolid; 0.5 h; control rats; read-out: Tissue/plasma concentration ratio, Kidney
property measured: Kp at 0.5 h

* CC(=O)NC[C@H]1CN(c2ccc(N3CCOCC3)c(F)c2)C(=O)O1 | 0.64

* * *

# test name: in vivo
# settings: Sprague-Dawley, rat, in vivo, iv, 25 mg/kg, Cmax
property measured: Cmax (ng/mL)

- CC(=O)NC[C@H]1CN(c2ccc(N(CCO)CC(=O)O)c(F)c2)C(=O)O1 [PNU-142586]: 1690

* * *

# test name: Tissue distribution after i.g. or i.v. linezolid in control, CCl4-induced and 5/6 Nx rats
# Type: in vivo, rat
# settings: rat, lung, iv, 25 mg/kg, i.v. 25 mg/kg linezolid; 0.5 h; 5/6 Nx rats; read-out: Tissue/plasma concentration ratio, Lung
# Method: These two groups were further divided into the following three subgroups (n = 4): control rats, CCl4-induced rats, and 5/6 Nx rats. […] The rats were euthanized immediately after blood sampling. The brain, heart, lungs, liver, kidneys, and small intestine were collected. […] Then, 5 µL of the supernatant was analyzed.
property measured: Kp at 0.5 h

• CC(=O)NC[C@H]1CN(c2ccc(N3CCOCC3)c(F)c2)C(=O)O1 [Linezolid] = 0.87

* * *

# test name: in vivo
# settings: Sprague-Dawley, rat, in vivo, iv, 25 mg/kg, Vd
property measured: Vd (L/kg)

* CC(=O)NC[C@H]1CN(c2ccc(N3CCOCC3)c(F)c2)C(=O)O1 [Linezolid] | 0.63

* * *

# test name: Tissue distribution after i.g. or i.v. linezolid in control, CCl4-induced and 5/6 Nx rats
# Format: in vivo, rat
# settings: rat, brain, oral, 63 mg/kg, i.g. 63 mg/kg linezolid; 0.5 h; 5/6 Nx rats; read-out: Tissue/plasma concentration ratio, Brain
property measured: Kp at 0.5 h

* CC(=O)NC[C@H]1CN(c2ccc(N3CCOCC3)c(F)c2)C(=O)O1 [Linezolid] | 0.17

* * *

# test name: Tissue distribution after i.g. or i.v. linezolid in control, CCl4-induced and 5/6 Nx rats
# Assay type: in vivo, rat
# settings: rat, liver, oral, 63 mg/kg, i.g. 63 mg/kg linezolid; 4 h; control rats; read-out: Tissue/plasma concentration ratio, Liver
property measured: Kp at 4 h

* CC(=O)NC[C@H]1CN(c2ccc(N3CCOCC3)c(F)c2)C(=O)O1 | 1.06

* * *

# test name: in vivo
# settings: Sprague-Dawley, rat, in vivo, po, 63 mg/kg, AUC0-∞
property measured: AUC(0-inf) (µg·h/mL)

• CC(=O)NC[C@H]1CN(c2ccc(N3CCOCC3)c(F)c2)C(=O)O1 = 220

* * *

# test name: Tissue distribution after i.g. or i.v. linezolid in control, CCl4-induced and 5/6 Nx rats
# Assay type: in vivo, rat
# settings: rat, brain, iv, 25 mg/kg, i.v. 25 mg/kg linezolid; 4 h; 5/6 Nx rats; read-out: Tissue/plasma concentration ratio, Brain
property measured: Kp at 4 h

• CC(=O)NC[C@H]1CN(c2ccc(N3CCOCC3)c(F)c2)C(=O)O1 = 0.13

* * *

# test name: Tissue distribution after i.g. or i.v. linezolid in control, CCl4-induced and 5/6 Nx rats
# Type: in vivo, rat
# settings: rat, lung, oral, 63 mg/kg, i.g. 63 mg/kg linezolid; 4 h; control rats; read-out: Tissue/plasma concentration ratio, Lung
property measured: Kp at 4 h

* CC(=O)NC[C@H]1CN(c2ccc(N3CCOCC3)c(F)c2)C(=O)O1 [Linezolid] | 0.46

* * *

# test name: Tissue distribution after i.g. or i.v. linezolid in control, CCl4-induced and 5/6 Nx rats
# Assay type: in vivo, rat
# settings: rat, heart, iv, 25 mg/kg, i.v. 25 mg/kg linezolid; 4 h; CCl4-induced rats; read-out: Tissue/plasma concentration ratio, Heart
property measured: Kp at 4 h

- CC(=O)NC[C@H]1CN(c2ccc(N3CCOCC3)c(F)c2)C(=O)O1: 0.67

* * *

# test name: Tissue distribution after i.g. or i.v. linezolid in control, CCl4-induced and 5/6 Nx rats
# Assay type: in vivo, rat
# settings: rat, brain, iv, 25 mg/kg, i.v. 25 mg/kg linezolid; 4 h; CCl4-induced rats; read-out: Tissue/plasma concentration ratio, Brain
property measured: Kp at 4 h

- CC(=O)NC[C@H]1CN(c2ccc(N3CCOCC3)c(F)c2)C(=O)O1: 0.08

* * *

# test name: Tissue distribution after i.g. or i.v. linezolid in control, CCl4-induced and 5/6 Nx rats
# Assay type: in vivo, rat
# settings: rat, lung, iv, 25 mg/kg, i.v. 25 mg/kg linezolid; 0.5 h; control rats; read-out: Tissue/plasma concentration ratio, Lung
# Experimental: These two groups were further divided into the following three subgroups (n = 4): control rats, CCl4-induced rats, and 5/6 Nx rats. […] The rats were euthanized immediately after blood sampling. The brain, heart, lungs, liver, kidneys, and small intestine were collected. […] Then, 5 µL of the supernatant was analyzed.
property measured: Kp at 0.5 h

- CC(=O)NC[C@H]1CN(c2ccc(N3CCOCC3)c(F)c2)C(=O)O1: 0.42

* * *

# test name: in vivo
# settings: Sprague-Dawley, rat, in vivo, po, 63 mg/kg
property measured: Tmax (min)

- CC(=O)NC[C@H]1CN(c2ccc(N3CCOCC3)c(F)c2)C(=O)O1 [Linezolid]: 54
